# protocolNotes: blockers of RIG-like receptor reporter activation – cell-based, Sendai virus stimulus, luciferase, 10K MLSCN set, TLR/RLR signaling modifier project, primary screen (AID 602276);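 further: firefly luciferase from ISG56 promoter only with Renilla not read in this screen; 0% = Sendai virus plus DMSO and 100% = medium plus DMSO without virus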
# conditionSet: HEK293 RL24 IRF3 luciferase reporter, at 10 µM, stronger effect = higher value
Answer 0 (no) if inhibition is under 9%, and 1 (yes) if it is 9% or more.

Take a look at these entries with their results.
O=c1cc(-c2ccco2)oc2ccc(Cl)cc12
0 (no)
CCC1(CC)C(=O)C(C)(C)C(=O)OC1c1cccs1 (stereo unspecified)
1 (yes)
CN(C(=O)c1ccccn1)c1nnc(-c2ccncc2)s1
0 (no)
CCn1cc(C(=O)NCC2COc3ccccc3O2)c2cc(OC)c(OC)cc2c1=O (stereo unspecified)
1 (yes)
Cc1cc(O)c(NC(=O)c2ccc(Br)o2)cc1C
0 (no)

For the next question, use this compound.
Incoming: Given Cc1nc2ccccc2c(=O)n1NC(=O)c1c(O)c2c(n(CC(C)C)c1=O)CCCC2 , state whether its inhibition is at least 9%.
Outgoing: 1 (yes)
